Tested on: Streptococcus pneumoniae
method_description: Antimicrobial activity against mef-encoded erythromycin resistant Streptococcus pneumoniae PU09 incubated in CAMHB medium for 20 to 24 hrs by two-fold microbroth dilution method
Type: functional
The following compounds are shown together with reported MIC values.
Remember to follow the number with its unit.

CC[C@H]1OC(=O)[C@H](C)[C@@H](OC(=O)NCCCc2cccnc2)[C@H](C)[C@@H](O[C@@H]2O[C@H](C)C[C@H](N(C)C)[C@H]2O)[C@](C)(OC)C[C@@H](C)/C(=N\OC)[C@H](C)[C@H]2OC(=O)O[C@@]21C; 0.5 µg/mL
CC[C@H]1OC(=O)[C@H](C)[C@@H](OCC#Cc2cncc(NC(=O)c3ccccn3)c2)[C@H](C)[C@@H](O[C@@H]2O[C@H](C)C[C@H](N(C)C)[C@H]2O)[C@](C)(OC)C[C@@H](C)/C(=N\OC)[C@H](C)[C@H]2OC(=O)O[C@@]21C; 4 µg/mL
C=CCO/N=C1\[C@H](C)C[C@@](C)(OC)[C@H](O[C@@H]2O[C@H](C)C[C@H](N(C)C)[C@H]2O)[C@@H](C)[C@H](OCC#Cc2cccnc2N)[C@@H](C)C(=O)O[C@H](CC)[C@@]2(C)OC(=O)O[C@@H]2[C@H]1C; 8 µg/mL

Memo: `C=CCO/N=C1\[C@H](C)C[C@@](C)(OC)[C@H](O[C@@H]2O[C@H](C)C[C@H](N(C)C)[C@H]2O)[C@@H](C)[C@H](OCC#Cc2ccc(N)nc2)[C@@H](C)C(=O)O[C@H](CC)[C@@]2(C)OC(=O)O[C@@H]2[C@H]1C` , reported MIC: 4 µg/mL

Memo: `CC[C@H]1OC(=O)[C@H](C)[C@@H](OCC#Cc2ccc(OCc3ccccc3)cc2)[C@H](C)[C@@H](O[C@@H]2O[C@H](C)C[C@H](N(C)C)[C@H]2O)[C@](C)(OC)C[C@@H](C)/C(=N\OC)[C@H](C)[C@H]2OC(=O)O[C@@]21C` , reported MIC: 8 µg/mL

Memo: `C#CCNCCC(=O)O[C@H]1[C@H](C)[C@@H](O[C@@H]2O[C@H](C)C[C@H](N(C)C)[C@H]2O)[C@](C)(OC)C[C@@H](C)/C(=N\OC)[C@H](C)[C@H]2OC(=O)O[C@]2(C)[C@@H](CC)OC(=O)[C@@H]1C` , reported MIC: 2 µg/mL

Memo: `CC[C@H]1OC(=O)[C@H](C)[C@@H](OC(=O)CCNCC#Cc2cccnc2)[C@H](C)[C@@H](O[C@@H]2O[C@H](C)C[C@H](N(C)C)[C@H]2O)[C@](C)(OC)C[C@@H](C)/C(=N\OC)[C@H](C)[C@H]2OC(=O)O[C@@]21C` , reported MIC: 8 µg/mL

Memo: `CC[C@H]1OC(=O)[C@H](C)[C@@H](OC(=O)CCNC/C=C/c2cccnc2)[C@H](C)[C@@H](O[C@@H]2O[C@H](C)C[C@H](N(C)C)[C@H]2O)[C@](C)(OC)C[C@@H](C)/C(=N\OC)[C@H](C)[C@H]2OC(=O)O[C@@]21C` , reported MIC: 2 µg/mL

---

method_description: Cmax in Sprague-Dawley rat at 20 mg/kg, po administered as single dose measured for 0.25 to 24 hrs by LC-MS/MS analysis
Assay type: ADME, organism-based
Parameters: dose 20 mg/kg, route oral
condition_info: in vivo
parameter: Cmax (ng/mL)
Give the value, in units of ng/mL, as a plain number.

Memo: `CC[C@H]1OC(=O)[C@H](C)[C@@H](OC(=O)NCCCc2cccnc2)[C@H](C)[C@@H](O[C@@H]2O[C@H](C)C[C@H](N(C)C)[C@H]2O)[C@](C)(OC)C[C@@H](C)/C(=N\OC)[C@H](C)[C@H]2OC(=O)O[C@@]21C` , reported Cmax: 1030

---

The following compounds are shown together with reported MBC values.
System: Streptococcus pneumoniae
method_description: Bactericidal activity against mef-encoded erythromycin resistant Streptococcus pneumoniae PU09 assessed as reduction in colony formation incubated in CAMHB medium for 20 to 24 hrs followed by 24 hrs subculturing in the medium without test compound
Assay type: functional
Give the value, in units of µg/mL, as a plain number.

Known MBC results, listed for orientation:
CC[C@H]1OC(=O)[C@H](C)[C@@H](OC(=O)CCNCCCc2ccc(-n3ccnc3)cc2)[C@H](C)[C@@H](O[C@@H]2O[C@H](C)C[C@H](N(C)C)[C@H]2O)[C@](C)(OC)C[C@@H](C)/C(=N\OC)[C@H](C)[C@H]2OC(=O)O[C@@]21C; 8
CC[C@H]1OC(=O)[C@H](C)[C@@H](OC(=O)CCNCCNc2cc3c(=O)c(C(=O)O)cn(C4CC4)c3cc2Cl)[C@H](C)[C@@H](O[C@@H]2O[C@H](C)C[C@H](N(C)C)[C@H]2O)[C@](C)(OC)C[C@@H](C)/C(=N\OC)[C@H](C)[C@H]2OC(=O)O[C@@]21C; 8
CC[C@H]1OC(=O)[C@H](C)[C@@H](OCC#Cc2cncc(NC(=O)c3ccccn3)c2)[C@H](C)[C@@H](O[C@@H]2O[C@H](C)C[C@H](N(C)C)[C@H]2O)[C@](C)(OC)C[C@@H](C)/C(=N\OC)[C@H](C)[C@H]2OC(=O)O[C@@]21C; 16
CC[C@H]1OC(=O)[C@H](C)[C@@H](OCC#Cc2ccc(OCc3ccccc3)cc2)[C@H](C)[C@@H](O[C@@H]2O[C@H](C)C[C@H](N(C)C)[C@H]2O)[C@](C)(OC)C[C@@H](C)/C(=N\OC)[C@H](C)[C@H]2OC(=O)O[C@@]21C; 16
CC[C@H]1OC(=O)[C@H](C)[C@@H](OC(=O)CCNCCCCc2cccnc2)[C@H](C)[C@@H](O[C@@H]2O[C@H](C)C[C@H](N(C)C)[C@H]2O)[C@](C)(OC)C[C@@H](C)/C(=N\OC)[C@H](C)[C@H]2OC(=O)O[C@@]21C; 4

Memo: `CC[C@H]1OC(=O)[C@H](C)[C@@H](OCC#Cc2ccc(-c3ccccn3)s2)[C@H](C)[C@@H](O[C@@H]2O[C@H](C)C[C@H](N(C)C)[C@H]2O)[C@](C)(OC)C[C@@H](C)/C(=N\OC)[C@H](C)[C@H]2OC(=O)O[C@@]21C` , reported MBC: 16

Memo: `CC[C@H]1OC(=O)[C@H](C)[C@@H](OC(=O)CCNC/C=C/c2cccnc2)[C@H](C)[C@@H](O[C@@H]2O[C@H](C)C[C@H](N(C)C)[C@H]2O)[C@](C)(OC)C[C@@H](C)/C(=N\OC)[C@H](C)[C@H]2OC(=O)O[C@@]21C` , reported MBC: 2

---

The following molecules are shown together with reported MIC values.
System: Streptococcus pyogenes
method_description: Antimicrobial activity against inducibly erythromycin resistant Streptococcus pyogenes 01-968 expressing i-ermA incubated in CAMHB medium for 20 to 24 hrs by two-fold microbroth dilution method
Type: functional
Give the value, in units of µg/mL, as a plain number.

CC[C@H]1OC(=O)[C@H](C)[C@@H](OCC#Cc2ccc(-c3ccccn3)s2)[C@H](C)[C@@H](O[C@@H]2O[C@H](C)C[C@H](N(C)C)[C@H]2O)[C@](C)(OC)C[C@@H](C)/C(=N\OC)[C@H](C)[C@H]2OC(=O)O[C@@]21C; 8
CC[C@H]1OC(=O)[C@H](C)[C@@H](OC(=O)CCNCCCc2ccc3c(c2)c(=O)c(C(=O)O)cn3C2CC2)[C@H](C)[C@@H](O[C@@H]2O[C@H](C)C[C@H](N(C)C)[C@H]2O)[C@](C)(OC)C[C@@H](C)/C(=N\OC)[C@H](C)[C@H]2OC(=O)O[C@@]21C; 32

Memo: `CC[C@H]1OC(=O)[C@H](C)[C@@H](OCC#Cc2ccc(C(=O)c3ccccc3)s2)[C@H](C)[C@@H](O[C@@H]2O[C@H](C)C[C@H](N(C)C)[C@H]2O)[C@](C)(OC)C[C@@H](C)/C(=N\OC)[C@H](C)[C@H]2OC(=O)O[C@@]21C` , reported MIC: 4

Memo: `C#CCNCCC(=O)O[C@H]1[C@H](C)[C@@H](O[C@@H]2O[C@H](C)C[C@H](N(C)C)[C@H]2O)[C@](C)(OC)C[C@@H](C)/C(=N\OC)[C@H](C)[C@H]2OC(=O)O[C@]2(C)[C@@H](CC)OC(=O)[C@@H]1C` , reported MIC: 0.5

---

The following compounds are shown together with reported MIC values.
Test system: Streptococcus pneumoniae
method_description: Antimicrobial activity against mef-encoded erythromycin resistant Streptococcus pneumoniae PU09 incubated in CAMHB medium for 20 to 24 hrs by two-fold microbroth dilution method
Format: functional
Give the value, in units of µg/mL, as a plain number.

Known MIC results, listed for orientation:
CC[C@H]1OC(=O)[C@H](C)[C@@H](O[C@H]2C[C@@](C)(OC)[C@@H](O)[C@H](C)O2)[C@H](C)[C@@H](O[C@@H]2O[C@H](C)C[C@H](N(C)C)[C@H]2O)[C@](C)(OC)C[C@@H](C)C(=O)[C@H](C)[C@@H](O)[C@]1(C)O; 4
CC[C@H]1OC(=O)[C@H](C)[C@@H](OC(=O)CCNCCCc2cccnc2)[C@H](C)[C@@H](O[C@@H]2O[C@H](C)C[C@H](N(C)C)[C@H]2O)[C@](C)(OC)C[C@@H](C)/C(=N\OC)[C@H](C)[C@H]2OC(=O)O[C@@]21C; 2
C=CCNCCC(=O)O[C@H]1[C@H](C)[C@@H](O[C@@H]2O[C@H](C)C[C@H](N(C)C)[C@H]2O)[C@](C)(OC)C[C@@H](C)/C(=N\OC)[C@H](C)[C@H]2OC(=O)O[C@]2(C)[C@@H](CC)OC(=O)[C@@H]1C; 4
C=CCO/N=C1\[C@H](C)C[C@@](C)(OC)[C@H](O[C@@H]2O[C@H](C)C[C@H](N(C)C)[C@H]2O)[C@@H](C)[C@H](OCC#Cc2cncc(C#N)c2)[C@@H](C)C(=O)O[C@H](CC)[C@@]2(C)OC(=O)O[C@@H]2[C@H]1C; 8

Memo: `CC[C@H]1OC(=O)[C@H](C)[C@@H](OCC#Cc2ccc(NC(=O)c3ccccn3)nc2)[C@H](C)[C@@H](O[C@@H]2O[C@H](C)C[C@H](N(C)C)[C@H]2O)[C@](C)(OC)C[C@@H](C)/C(=N\OC)[C@H](C)[C@H]2OC(=O)O[C@@]21C` , reported MIC: 4

Memo: `CC[C@H]1OC(=O)[C@H](C)[C@@H](OC(=O)NCC#Cc2cccnc2)[C@H](C)[C@@H](O[C@@H]2O[C@H](C)C[C@H](N(C)C)[C@H]2O)[C@](C)(OC)C[C@@H](C)/C(=N\OC)[C@H](C)[C@H]2OC(=O)O[C@@]21C` , reported MIC: 0.5

Memo: `C=CCO/N=C1\[C@H](C)C[C@@](C)(OC)[C@H](O[C@@H]2O[C@H](C)C[C@H](N(C)C)[C@H]2O)[C@@H](C)[C@H](OCC#Cc2ccc(N)cn2)[C@@H](C)C(=O)O[C@H](CC)[C@@]2(C)OC(=O)O[C@@H]2[C@H]1C` , reported MIC: 8

Memo: `CC[C@H]1OC(=O)[C@H](C)[C@@H](OC(=O)CCNCCCc2ccc3c(c2)c(=O)c(C(=O)O)cn3C2CC2)[C@H](C)[C@@H](O[C@@H]2O[C@H](C)C[C@H](N(C)C)[C@H]2O)[C@](C)(OC)C[C@@H](C)/C(=N\OC)[C@H](C)[C@H]2OC(=O)O[C@@]21C` , reported MIC: 4
